Each entry below carries its recorded IC50.
- target: Human PDE4A (Homo sapiens (Human))
- assay.protocol: PDE4A Scintillation Proximity Assay (SPA), inhibition of enzyme activity
- Assay type: biochemical
- cond: human recombinant enzyme, 1 μM cAMP substrate, 30 min at 25° C., geometric mean of 2-9 determinations unless otherwise indicated, read-out: Human PDE4A FL
All answers are understood in nM, so give the number only.

Check out these entries, answers already filled in.
1. COc1ccc(-c2c(C(=O)N3CCC3)nc3cccnn23)c(F)c1 : 165
2. CCCNC(=O)c1nc2cccnn2c1-c1cc(F)cc(Cl)c1 : 29.5
3. CNC(=O)c1nc2cccnn2c1-c1ccc(Cl)c(F)c1 : 24.9
4. Cc1cc(C#N)c(F)cc1-c1c(C(=O)N2CCC2)nc2cccnn12 : 6.7
5. O=C(NC1CC1)c1nc2cccnn2c1-c1ccc2ncoc2c1 : 45
6. O=C(c1nc2cccnn2c1-c1ccc(Cl)cc1F)N1CCC1 : 24.3
7. O=C(Nc1cn[nH]c1)c1nc2cccnn2c1-c1ccc(Cl)c(F)c1 : 12
8. N#Cc1cc(F)c(-c2c(C(=O)N3CCC3)nc3cccnn23)cc1F : 5.04
9. CNC(=O)c1nc2cccnn2c1-c1cc(F)c(Cl)cc1C : 38.6
10. O=C(NC1CC1)c1nc2cccnn2c1-c1cc(F)cc(Cl)c1 : 35.7

For Human PDE4A (Homo sapiens (Human)), provide IC50 of "O=C(c1nc2cccnn2c1-c1cccc(Cl)c1)N1CCC1" please.
16.7

Form: Entry = "O=C(c1nc2cccnn2c1-c1cc(F)c(Cl)cc1F)N1CCC1" | System = Human PDE4A (Homo sapiens (Human)) | IC50 = ____
12.6

So what IC50 did "CCCNC(=O)c1nc2cccnn2c1-c1cc(Cl)cc(Cl)c1" get with Human PDE4A (Homo sapiens (Human))?
15.6

What IC50 appears in the records for this molecule with Human PDE4A (Homo sapiens (Human))? "O=C(NC1CC1)c1nc2cccnn2c1-c1ccc2ocnc2c1"
14.8

Fill in the recorded IC50 for this molecule, with Human PDE4A (Homo sapiens (Human)) as test system: "O=C(NC1CC1)c1nc2cccnn2c1-c1ccc(OC(F)F)nc1"
240

For the record "O=C(c1nc2cccnn2c1-c1ccc(Cl)cc1)N1CC(F)C1" , what value of IC50 is listed for Human PDE4A (Homo sapiens (Human))?
269

Entry "CCNC(=O)c1nc2cccnn2c1-c1cc(F)c(C#N)cc1C" , system Human PDE4A (Homo sapiens (Human)): what IC50 was measured?
26.6

Given the entry "Cc1cc(Cl)ccc1-c1c(C(=O)N[C@@H]2C[C@@H]2F)nc2cccnn12" , what IC50 was observed with Human PDE4A (Homo sapiens (Human))?
36.4

###

- target: Human PDE4D (Homo sapiens (Human), UniProt Q08499)
- Sequence (Q08499 186-808): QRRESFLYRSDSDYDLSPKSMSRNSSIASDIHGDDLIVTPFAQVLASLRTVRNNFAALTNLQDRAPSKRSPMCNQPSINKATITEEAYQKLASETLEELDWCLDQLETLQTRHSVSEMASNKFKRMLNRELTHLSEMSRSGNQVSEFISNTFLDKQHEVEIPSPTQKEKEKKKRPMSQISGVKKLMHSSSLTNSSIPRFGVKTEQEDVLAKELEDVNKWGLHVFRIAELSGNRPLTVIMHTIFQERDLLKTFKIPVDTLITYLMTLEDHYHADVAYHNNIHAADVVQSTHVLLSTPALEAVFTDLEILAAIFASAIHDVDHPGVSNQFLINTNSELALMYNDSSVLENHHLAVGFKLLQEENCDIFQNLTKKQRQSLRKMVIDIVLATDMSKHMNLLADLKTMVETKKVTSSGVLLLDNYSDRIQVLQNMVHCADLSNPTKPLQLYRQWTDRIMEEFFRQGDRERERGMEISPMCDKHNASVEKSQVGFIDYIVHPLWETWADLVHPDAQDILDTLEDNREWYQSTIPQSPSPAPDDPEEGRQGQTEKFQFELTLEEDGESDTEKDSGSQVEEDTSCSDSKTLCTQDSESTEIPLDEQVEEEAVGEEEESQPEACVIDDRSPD
- assay.protocol: PDE4D Scintillation Proximity Assay (SPA), inhibition of enzyme activity
- Assay type: biochemical
- cond: human recombinant enzyme, 1 μM cAMP substrate, 30 min at 25° C., geometric mean of 2-9 determinations unless otherwise indicated, read-out: Human PDE4D FL
outcome.measure: pIC50
pIC50 here is simply -log10 of the concentration when that concentration is written in mol/L.

pIC50 lookup needed for O=C(NC12CC(C1)C2)c1nc2cccnn2c1-c1ccc(Cl)cc1 [Example 37] , thanks.
5.59

If you can, please state the reported pIC50 value of CCNC(=O)c1nc2cccnn2c1-c1cc(F)c(Cl)cc1F [Example 96] .
6.04

Which pIC50 is reported for this compound? O=C(NC1CC1)c1nc2cccnn2c1-c1ccc(Cl)c(Cl)c1 [Example 11]
6.48

For the compound shown here, O=C(c1nc2cccnn2c1-c1ccc(Cl)c(Cl)c1)N1CCC1 [Example 83] , give the reported pIC50.
6.31

Would you mind telling me what pIC50 value was observed for O=C(c1nc2cccnn2c1-c1ccc(Cl)cc1)N1CC(F)(F)C1 [Example 61] ?
5.71

Reported pIC50, compound O=C(NC1CC1)c1nc2cccnn2c1-c1cnc2ccoc2c1 [Example 38] : ____
4.95

Item under review: CCCNC(=O)c1nc2cccnn2c1-c1cc(Cl)cc(Cl)c1 [Example 28] . Reported pIC50?
6.41

###

We begin with a simple list: items and their reported log10 of IC50.
- target: Human PDE4C (Homo sapiens (Human), UniProt Q08493)
- Sequence (Q08493 2-712): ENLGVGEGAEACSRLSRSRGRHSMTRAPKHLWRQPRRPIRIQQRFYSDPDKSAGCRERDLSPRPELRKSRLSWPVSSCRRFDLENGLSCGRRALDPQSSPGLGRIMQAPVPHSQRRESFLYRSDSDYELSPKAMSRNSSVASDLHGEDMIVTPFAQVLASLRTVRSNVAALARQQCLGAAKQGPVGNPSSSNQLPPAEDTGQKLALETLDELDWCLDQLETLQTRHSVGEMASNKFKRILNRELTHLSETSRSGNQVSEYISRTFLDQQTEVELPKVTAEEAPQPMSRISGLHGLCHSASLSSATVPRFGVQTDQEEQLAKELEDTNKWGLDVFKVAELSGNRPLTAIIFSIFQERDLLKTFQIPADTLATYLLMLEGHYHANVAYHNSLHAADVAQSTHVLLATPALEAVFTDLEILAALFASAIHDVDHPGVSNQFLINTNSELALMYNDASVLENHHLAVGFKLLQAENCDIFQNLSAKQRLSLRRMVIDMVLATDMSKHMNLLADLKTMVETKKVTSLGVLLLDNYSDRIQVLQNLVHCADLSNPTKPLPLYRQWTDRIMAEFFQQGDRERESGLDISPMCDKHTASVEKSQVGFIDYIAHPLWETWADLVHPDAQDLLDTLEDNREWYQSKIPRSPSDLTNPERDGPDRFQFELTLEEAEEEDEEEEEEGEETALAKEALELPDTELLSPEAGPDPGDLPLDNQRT
- assay.protocol: PDE4C Scintillation Proximity Assay (SPA), inhibition of enzyme activity
- Format: biochemical
- cond: human recombinant enzyme, 1 μM cAMP substrate, 30 min at 25° C., geometric mean of 2-9 determinations unless otherwise indicated, read-out: Human PDE4C FL
A difference of one corresponds to tenfold IC50; all values are log10 with IC50 in nM.

Can you share its log10 of IC50? I mean this compound: O=C(c1nc2cccnn2c1-c1ccc(Cl)c(F)c1)N1CCC1 [Example 13]
1.24

// lookup log10 of IC50 for O=C(c1nc2cccnn2c1-c1ccc(Cl)cc1)N1CC(F)C1 [Example 60]
2.46

For the compound N#Cc1ccc(-c2c(C(=O)NC3CC3)nc3cccnn23)cc1F [Example 90] , what log10 of IC50 is on record?
1.41

###

- target: Human PDE4C (Homo sapiens (Human))
- assay.protocol: PDE4C Scintillation Proximity Assay (SPA), inhibition of enzyme activity
- Assay type: biochemical
- cond: human recombinant enzyme, 1 μM cAMP substrate, 30 min at 25° C., geometric mean of 2-9 determinations unless otherwise indicated, read-out: Human PDE4C FL
outcome.measure: pIC50
Keep in mind that pIC50 stands for -log10 of concentration in molar terms.

Example results:
1. Cc1cc(Cl)ccc1-c1c(C(=O)N[C@@H]2C[C@@H]2F)nc2cccnn12 : 7.05
2. O=C(c1nc2cccnn2c1-c1ccc2c(c1)CCO2)N1CCC1 : 6.63
3. CCNC(=O)c1nc2cccnn2c1-c1cc(F)c(Cl)cc1F : 7.53
4. CCNC(=O)c1nc2cccnn2c1-c1ccc(Cl)cc1 : 7.33

API: the following record is the query input.
Tell me the measured pIC50 of "O=C(NC1CC1)c1nc2cccnn2c1-c1cncc(Cl)c1" , please.
6.97

###

- target: Human PDE4A (Homo sapiens (Human))
- assay.protocol: PDE4A Scintillation Proximity Assay (SPA), inhibition of enzyme activity
- Type: biochemical
- cond: read-out: Human PDE4A FL
outcome.measure: pIC50
// pIC50: -log10(molar conc.)

Worked cases, pIC50 given:
1) O=C(NC1CC1)c1nc2cccnn2c1-c1ccc(Cl)cc1 : 7.97
2) COc1c(F)cc(-c2c(C(=O)N3CCC3)nc3cccnn23)cc1F : 7.90

Tell me the measured pIC50 of "Cn1cc(NC(=O)c2nc3cccnn3c2-c2ccc(Cl)c(F)c2)cn1" , please.
8.56

###

- target: Human PDE4A (Homo sapiens (Human), UniProt P27815)
- Sequence (P27815 other isoform, or with tags, fused parts or gaps): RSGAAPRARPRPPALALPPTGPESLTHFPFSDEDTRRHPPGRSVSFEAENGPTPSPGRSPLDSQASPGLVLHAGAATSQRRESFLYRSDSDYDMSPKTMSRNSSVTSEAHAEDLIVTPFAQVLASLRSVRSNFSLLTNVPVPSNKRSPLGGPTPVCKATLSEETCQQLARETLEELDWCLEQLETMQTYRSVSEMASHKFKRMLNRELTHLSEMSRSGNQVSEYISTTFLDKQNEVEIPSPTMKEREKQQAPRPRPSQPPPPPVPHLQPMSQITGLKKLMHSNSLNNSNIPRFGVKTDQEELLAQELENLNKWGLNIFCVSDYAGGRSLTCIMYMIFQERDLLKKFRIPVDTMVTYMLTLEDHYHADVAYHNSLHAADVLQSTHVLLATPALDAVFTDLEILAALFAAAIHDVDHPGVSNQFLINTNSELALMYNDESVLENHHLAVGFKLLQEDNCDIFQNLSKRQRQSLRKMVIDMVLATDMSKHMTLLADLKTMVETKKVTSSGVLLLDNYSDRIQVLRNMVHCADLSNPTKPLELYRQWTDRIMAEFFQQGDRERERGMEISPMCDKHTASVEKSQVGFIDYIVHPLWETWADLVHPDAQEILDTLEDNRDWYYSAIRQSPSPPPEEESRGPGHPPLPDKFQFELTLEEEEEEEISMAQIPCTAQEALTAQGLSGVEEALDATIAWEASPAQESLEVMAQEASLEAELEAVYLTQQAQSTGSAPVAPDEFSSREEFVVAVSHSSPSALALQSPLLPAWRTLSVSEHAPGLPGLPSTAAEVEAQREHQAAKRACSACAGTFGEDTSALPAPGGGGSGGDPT
- assay.protocol: PDE4A Scintillation Proximity Assay (SPA), inhibition of enzyme activity
- Format: biochemical
- cond: human recombinant enzyme, 1 μM cAMP substrate, 30 min at 25° C., geometric mean of 2-9 determinations unless otherwise indicated, read-out: Human PDE4A FL
Threshold-based label: IC50 under 20 nM gives Fulfilled, IC50 not under 20 nM gives Not fulfilled.

Before answering, review these 5 worked examples.
1) O=C(Nc1ncccn1)c1nc2cccnn2c1-c1ccc(Cl)cc1 [Example 101] : Not fulfilled
2) O=C(Nc1ccn[nH]1)c1nc2cccnn2c1-c1ccc(Cl)cc1 [Example 103] : Not fulfilled
3) COc1ccc(-c2c(C(=O)N3CCC3)nc3cccnn23)cc1F [Example 55] : Not fulfilled
4) O=C(c1nc2cccnn2c1-c1ccc(Cl)c(Cl)c1)N1CCC1 [Example 83] : Fulfilled
5) O=C(NC1CC1)c1nc2cccnn2c1-c1ccnc(OC(F)F)c1 [Example 75] : Fulfilled

Please indicate whether the reported IC50 of COC1CN(C(=O)c2nc3cccnn3c2-c2ccc(Cl)cc2)C1 [Example 31] is strictly below 20 nM.
Not fulfilled

Find out if reported IC50 for O=C(NC1CC1)c1nc2cccnn2c1-c1ccc(Cl)c(F)c1 [Example 10] is less than 20 nM
Fulfilled

Does this compound meet the criterion IC50 < 20 nM? O=C(N[C@@H]1C[C@@H]1F)c1nc2cccnn2c1-c1ccc(Cl)c(F)c1 [Example 45]
Fulfilled

I'd appreciate it if you could check whether O=C(NCC1CC1)c1nc2cccnn2c1-c1ccc(Cl)cc1 [Example 102] has IC50 smaller than 20 nM.
Not fulfilled

Given Cc1cc(-c2c(C(=O)N3CCC3)nc3cccnn23)cc(C)c1F [Example 53] , is recorded IC50 strictly lower than 20 nM?
Fulfilled

###

- target: Human PDE4D (Homo sapiens (Human))
- assay.protocol: PDE4D Scintillation Proximity Assay (SPA), inhibition of enzyme activity
- Type: biochemical
- cond: human recombinant enzyme, 1 μM cAMP substrate, 30 min at 25° C., geometric mean of 2-9 determinations unless otherwise indicated, read-out: Human PDE4D FL
outcome.measure: pIC50
Keep in mind that pIC50 stands for -log10 of concentration in molar terms.

1. O=C(c1nc2cccnn2c1-c1ccc(Cl)cc1F)N1CCC1 : 5.26
2. O=C(NC1CC1)c1nc2cccnn2c1-c1cc(F)c(Cl)cc1F : 5.83
3. O=C(NC1CC1)c1nc2cccnn2c1-c1ccc(Cl)cc1F : 5.04
4. Cc1cc(Cl)ccc1-c1c(C(=O)N[C@@H]2C[C@@H]2F)nc2cccnn12 : 5.24
5. Cc1cc(-c2c(C(=O)N3CCC3)nc3cccnn23)ccc1Cl : 5.55

Turning to the following compound.
What value of pIC50 has been reported for the following compound? "CNC(=O)c1nc2cccnn2c1-c1ccc(Cl)c(F)c1"
5.27

Data provenance is patent US9598421B2.
